Where do the numbers come from? From patent US20250320281A1.

target: HIV-1 ADA Env (HIV-1 ADA); assay: cell-based or functional assay
measure: IC50 (ug/ml), pseudovirus neutralization, TZM-bl assay

>  <binder>
1469_M23 (PG16) (TCN-118) (antibody, V domains shown) VH: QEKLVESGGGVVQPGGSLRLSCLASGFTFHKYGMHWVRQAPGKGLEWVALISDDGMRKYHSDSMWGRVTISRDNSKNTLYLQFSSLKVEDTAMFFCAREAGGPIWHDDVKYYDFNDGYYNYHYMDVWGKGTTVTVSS VL: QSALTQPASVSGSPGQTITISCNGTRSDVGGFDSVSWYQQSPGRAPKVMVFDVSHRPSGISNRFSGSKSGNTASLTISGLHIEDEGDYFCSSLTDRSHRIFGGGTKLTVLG

>  <measurement>
0.005 µg/mL

$$$$
>  <binder>
1503_H05 (PG16) (TCN-119) (antibody, V domains shown) VH: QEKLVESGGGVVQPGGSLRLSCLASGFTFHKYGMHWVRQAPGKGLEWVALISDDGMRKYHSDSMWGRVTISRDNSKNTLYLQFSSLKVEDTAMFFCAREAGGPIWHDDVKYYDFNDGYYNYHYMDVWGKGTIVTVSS VL: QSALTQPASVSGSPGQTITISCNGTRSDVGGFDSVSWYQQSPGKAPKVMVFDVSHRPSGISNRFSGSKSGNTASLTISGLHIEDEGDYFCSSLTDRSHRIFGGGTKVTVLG

>  <measurement>
0.003 µg/mL

$$$$
>  <binder>
1489_I13 (PG16) (TCN-120) (antibody, V domains shown) VH: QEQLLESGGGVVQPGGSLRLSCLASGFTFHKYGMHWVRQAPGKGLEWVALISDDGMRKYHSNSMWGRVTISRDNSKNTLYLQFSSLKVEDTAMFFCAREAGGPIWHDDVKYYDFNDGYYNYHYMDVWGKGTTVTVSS VL: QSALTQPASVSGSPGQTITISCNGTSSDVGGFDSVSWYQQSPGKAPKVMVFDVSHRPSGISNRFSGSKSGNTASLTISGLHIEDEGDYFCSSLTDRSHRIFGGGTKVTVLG

>  <measurement>
0.008 µg/mL

$$$$
>  <binder>
1456_A12 (PG16) (TCN-117) (antibody, V domains shown) VH: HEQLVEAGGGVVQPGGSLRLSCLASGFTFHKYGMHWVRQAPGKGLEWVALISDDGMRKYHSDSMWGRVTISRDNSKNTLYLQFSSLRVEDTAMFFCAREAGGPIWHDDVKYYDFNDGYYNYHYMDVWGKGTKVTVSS VL: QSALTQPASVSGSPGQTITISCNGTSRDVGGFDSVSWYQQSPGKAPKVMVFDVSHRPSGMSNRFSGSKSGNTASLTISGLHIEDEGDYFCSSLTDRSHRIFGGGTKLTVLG

>  <measurement>
0.005 µg/mL

$$$$
